test system: HT22 cells; test: In vitro ischemia assay (HT22 cell IAA assay, MTT); format: cell-based, mouse; details: Mus musculus, HT-22, HT22 cells, 20 μM IAA; read-out: HT22 Cell IAA assay EC50
pEC50: −log10 of the molar value.
Entries and their pEC50 values follow.

[[record]]
molecule = "O=c1cc(-c2ccc(O)c(O)c2)oc2c1ccc1ccccc12 [CMS-02P, reference compound]"
obs_value = "≥ 7.00"


Exam item: Give the reported pEC50 for O=C(/C=C/c1ccc(O)c(O)c1)c1ccc2ccccc2c1O [CMS-034] (system: HT22 cells).
Marked response: ≥ 7.00

Exam item: Now try COc1cc(-c2cc(=O)c3cc(C)c(C)cc3o2)ccc1O [CMS-064] .
Marked response: > 7.40

Exam item: Now try COc1cc(-c2oc3cc(C)c(C)cc3c(=O)c2O)ccc1O [CMS-069] .
Marked response: > 7.40

Exam item: Now try CC(C)c1ccc(O)c(C(=O)/C=C/c2ccc(O)c(O)c2)c1 [CMS-129] .
Marked response: ≥ 7.00

Exam item: Now try COc1cc(-c2oc3c(ccc4ccccc43)c(=O)c2O)ccc1N1CCCC1 [CMS-139] .
Marked response: ≥ 7.00
